B1: E3 ubiquitin-protein ligase COP1 (Arabidopsis thaliana (Mouse-ear cress)), P43254 (parent)
chain: MEEISTDPVVPAVKPDPRTSSVGEGANRHENDDGGSGGSEIGAPDLDKDLLCPICMQIIKDAFLTACGHSFCYMCIITHLRNKSDCPCCSQHLTNNQLYPNFLLDKLLKKTSARHVSKTASPLDQFREALQRGCDVSIKEVDNLLTLLAERKRKMEQEEAERNMQILLDFLHCLRKQKVDELNEVQTDLQYIKEDINAVERHRIDLYRARDRYSVKLRMLGDDPSTRNAWPHEKNQIGFNSNSLSIRGGNFVGNYQNKKVEGKAQGSSHGLPKKDALSGSDSQSLNQSTVSMARKKRIHAQFNDLQECYLQKRRQLADQPNSKQENDKSVVRREGYSNGLADFQSVLTTFTRYSRLRVIAEIRHGDIFHSANIVSSIEFDRDDELFATAGVSRCIKVFDFSSVVNEPADMQCPIVEMSTRSKLSCLSWNKHEKNHIASSDYEGIVTVWDVTTRQSLMEYEEHEKRAWSVDFSRTEPSMLVSGSDDCKVKVWCTRQEASVINIDMKANICCVKYNPGSSNYIAVGSADHHIHYYDLRNISQPLHVFSGHKKAVSYVKFLSNNELASASTDSTLRLWDVKDNLPVRTFRGHTNEKNFVGLTVNSEYLACGSETNEVYVYHKEITRPVTSHRFGSPDMDDAEEEAGSYFISAVCWKSDSPTMLTANSQGTIKVLVLAA
partner: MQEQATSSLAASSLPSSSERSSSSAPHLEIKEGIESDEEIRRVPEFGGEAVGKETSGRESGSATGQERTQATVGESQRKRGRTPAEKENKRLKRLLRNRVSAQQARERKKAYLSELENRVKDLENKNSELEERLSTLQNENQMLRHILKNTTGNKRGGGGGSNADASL

Variants of: B1
reported conditions: with hy5_arath HY5, O24646
observation type: effect of a mutation on the interaction

{"columns": ["mutation code", "effect of a mutation on the interaction"],
 "data": [
  ["K422E", "increasing interaction"],
  ["E592R", "increasing interaction"],
  ["K550E", "decreasing interaction"],
  ["W467A", "decreasing interaction"]
]}

Consider the variant shown here: G524E What is its recorded effect of a mutation on the interaction?
decreasing interaction

Where do these numbers come from? They come from IntAct's records for PubMed 11226162.
